Let's look at some compounds and their measured TGI.
System: UACC-257 melanoma
TEST_DESCRIPTION: NCI tumour cell line growth inhibition, 48 h
Answer with a number only, understood to be in µM.

Input: Report value: TGI, system: UACC-257 melanoma, compound: `Nc1ccccc1NC(=O)c1ccc(CSc2nc(N3CCOCC3)c3cccn3n2)cc1`
Output: 4.54

Input: Fetch value of TGI on UACC-257 melanoma for `CCc1ccc(C2=C/C(=C/c3ccc(Cl)cc3)C(=O)N2CCc2ccc(S(N)(=O)=O)cc2)cc1` .
Output: 15.3

---

System: HOP-92 NSCLC
TEST_DESCRIPTION: NCI tumour cell line growth inhibition, 48 h
MEASURE_NAME: TGI

- MOLECULE: "CC[O-].CC[O-].[O-]c1ccccc1C=Nc1ccccc1.[O-]c1ccccc1C=Nc1ccccc1.[Ti+4]"
  TGI: "> 100 µM"
- MOLECULE: "Nc1ccccc1NC(=O)c1ccc(CSc2nc(N3CCOCC3)c3cccn3n2)cc1"
  TGI: "0.991 µM"
- MOLECULE: "CC(C#N)c1cn(S(=O)(=O)c2ccccc2)c2ccccc12 (centres undefined)"
  TGI: "53.8 µM"
- MOLECULE: "O=S(=O)(O)c1cc(S(=O)(=O)O)c2c(N=Nc3cccc4ccccc34)c(O)ccc2c1"
  TGI: "> 100 µM"

Input: Note TGI for the molecule shown: `NCCCNc1ccc2c(c1)[n+]([O-])c1ccccc1[n+]2[O-]`
Output: 62.6 µM

Input: For the molecule `N#Cc1c(C#N)c(-c2cccc([N+](=O)[O-])c2)n(-c2ccccc2)c1N` , report TGI.
Output: > 100 µM

Input: Input `COc1ccc(-c2coc3ncnc(N)c23)cc1` , output reported TGI.
Output: > 25 µM

Input: Return TGI (reported value) for this molecule: `COC(=O)CCc1ccc2c(c1)CCC2`
Output: > 100 µM

Input: Give TGI for the following molecule: `CC(=O)c1ccc(-c2oc(-c3ccccc3)cc2-c2ccc3c(c2)OCO3)s1`
Output: > 100 µM

Input: For the molecule `CC1=C(C)SC(=C2Sc3c(n(C)c(=O)[nH]c3=O)S2)S1` , give its reported TGI.
Output: > 100 µM

Input: Give the reported TGI for this molecule. Nc1nc(N)c2nc(CNc3ccc(C(=O)CC(CCC(=O)O)C(=O)O)cc3)cnc2n1 (centres undefined)
Output: > 100 µM

Input: Retrieve TGI measured for `COc1ccc(C(=S)c2cc(OC)c(OC)c(OC)c2)cc1OC(=O)CCl` and print it.
Output: > 100 µM

Input: Determine its reported TGI: CCOC(=O)C(NNS(=O)(=O)c1ccc(C)cc1)S(=O)(=O)C(F)(F)C(F)(F)C(F)(F)C(F)(F)F (centres undefined)
Output: > 100 µM

Input: Supply measured TGI of O=C(CCl)N1CCCCC1C1(c2cc3ccccc3[nH]2)OCCO1 (centres undefined) in your reply.
Output: 24.7 µM
